System: Plasmodium falciparum
assay.procedure: Screen against P. falciparum Asexual Blood Stage (ABS), at 5uM
Format: functional, Dd2
assay.setup: tested at 5 uM
Screen size: about 65,000 compounds; about 2,100 (3.2%) showed an effect of 50% or more. The median lay at about -52%. The full list was thinned out, with strong results kept by preference.
experimental.readout: INHIBITION (%)
Respond numerically; units are % and should not be typed.

See these solved cases before continuing.
>  <molecule>
COc1c(CNC2(c3ccc(Cl)cc3)CCC2)c(C)nn1C

>  <value>
60.5

$$$$
>  <molecule>
Cc1cccc(CN2CCCC3(CCN(C4CCSCC4)C3)C2=O)c1 (stereo unspecified)

>  <value>
6.83

$$$$

Input line: Could you tell me which INHIBITION is on file for Cc1csc(Nc2cc(C3CN(C(C)C)C3)nc(C)n2)n1 ?
Output line: -3.32

Input line: Same lookup for O=C1N(Cc2ccc(F)c(F)c2)CCCC12CCN(C1CCCC1)C2 (stereo unspecified) , please.
Output line: 68.1

Input line: Same lookup for O=C1N(Cc2ccc(F)c(F)c2)CCCC12CCN(C1CCCCC1)C2 (stereo unspecified) , please.
Output line: 60.9

---

Test system: Plasmodium falciparum
assay.procedure: Screen against P. falciparum Asexual Blood Stage (ABS), at 5uM
Format: functional, Dd2
assay.setup: tested at 5 uM
About 2,100 (3.2%) of roughly 65,000 compounds showed an effect of 50% or more. The median lay at about -52%. This excerpt belongs to a sample that is enriched for strong results.
experimental.readout: INHIBITION (%)
Respond numerically; units are % and should not be typed.

See these solved cases before continuing.
>  <molecule>
COc1cc(Oc2ccc(C(F)(F)F)cn2)ccc1CN1CCCC1

>  <unit.spec>
%

>  <INHIBITION>
30.2

$$$$
>  <molecule>
Cc1csc(C(=O)N2CC(S(=O)(=O)C3CCCCC3)C2)c1

>  <unit.spec>
%

>  <INHIBITION>
-52

$$$$
>  <molecule>
CC(C)CO[C@H]1CN(S(=O)(=O)c2cn(C)cn2)[C@@H]2CCCO[C@H]12

>  <unit.spec>
%

>  <INHIBITION>
-26.7

$$$$

Input line: Could you tell me which INHIBITION is on file for CC1CCCN(CCCNC(=O)c2ccc(N(C)S(C)(=O)=O)cc2Cl)C1 (centres undefined) ?
Output line: -129

Input line: Same lookup for CN(CCc1ccccc1)C1CCCN(Cc2nccn2C)C1 (centres undefined) , please.
Output line: 22.1

Input line: Same lookup for Cc1ccccc1CN1CCN(C(=O)c2ccn(C(C)(C)C)c2)CC1 , please.
Output line: 2.14

---

System: Plasmodium falciparum
assay.procedure: Screen against P. falciparum Asexual Blood Stage (ABS), at 5uM
Type: functional, Dd2
assay.setup: tested at 5 uM
Hit rate of the full screen: of about 65,000 compounds, about 2,100 (3.2%) showed an effect of 50% or more. The median lay at about -52%. Shown is part of a subset that was picked to be rich in strong results.
Respond with TRUE for INHIBITION values of -30% and above, FALSE for values below.

>  <molecule>
CCNC(=O)CCC(=O)NC(Cc1ccccc1)c1sccc1C (centres undefined)

>  <study.target>
Plasmodium falciparum

>  <cat>
FALSE

$$$$
>  <molecule>
Cc1ccsc1C(Cc1ccccc1)NC(=O)CNC(=O)C1CC1 (centres undefined)

>  <study.target>
Plasmodium falciparum

>  <cat>
TRUE

$$$$
>  <molecule>
Cc1nnc(NCc2ccccc2F)c(C#N)c1C

>  <study.target>
Plasmodium falciparum

>  <cat>
TRUE

$$$$
>  <molecule>
CC(C)(C)NC(=O)CN1CCCNCC1

>  <study.target>
Plasmodium falciparum

>  <cat>
FALSE

$$$$

Input line: I'd appreciate it if you could say whether O=C([C@H]1C[C@H]2OCC[C@H]2N(CC2CCOCC2)C1)N1CCCCO1 has INHIBITION at least equal to -30%.
Output line: TRUE

Input line: Same lookup for Cc1nc(Cc2ccccc2)nc2sc(C(=O)O)c(C)c12 , please.
Output line: FALSE

Input line: Same lookup for Cc1ccsc1C(Cc1ccccc1)NC(=O)CSCC(N)=O (centres undefined) , please.
Output line: TRUE

Input line: Same lookup for O=C(NCc1cccnc1)[C@@H]1C[C@H]2[C@H](CCN2c2ncccn2)O1 , please.
Output line: FALSE

Input line: Same lookup for CO[C@@H]1c2ccccc2C2(CCN(C(=O)CNC(=O)C(C)C)CC2)[C@H]1O , please.
Output line: FALSE

Input line: Same lookup for Cc1nnc(NCC2(c3ccccc3)CCC2)c(C#N)c1C , please.
Output line: FALSE

Input line: Same lookup for Cc1nc(N2CCC(C)CC2)ncc1-c1cc(O)nc(N2CCCC2)n1 , please.
Output line: FALSE

Input line: Same lookup for Clc1cccc(Cl)c1CNCCOc1ccccn1 , please.
Output line: FALSE

Input line: Same lookup for Cc1c(Cl)c(C(=O)NN2CCOCC2)nn1C , please.
Output line: FALSE

Input line: Same lookup for COc1ncc(C2(O)CCN(Cc3c(F)cccc3F)CC2)c(OC)n1 , please.
Output line: TRUE

Input line: Same lookup for Cc1noc(C(C)C)c1C(=O)NCCCN1CCCCCC1=O , please.
Output line: FALSE

Input line: Same lookup for O=C(c1ccccc1)N1C[C@@H]2CCCO[C@@H]2[C@H](N2CCCC2)C1 , please.
Output line: FALSE

Input line: Same lookup for Cc1cc(C)cc(CN2C[C@@H]3OCCN(CC(=O)N(C)C)[C@@H]3C2)c1 , please.
Output line: FALSE

Input line: Same lookup for CC(C)(C)CN(CCC#N)C(=O)c1cccc(CC#N)c1 , please.
Output line: FALSE

Input line: Same lookup for Cc1nnc(NCc2cccnc2OCC(F)(F)F)c(C#N)c1C , please.
Output line: FALSE

Input line: Same lookup for O=C(C1CCCCC1)N1CCC2(CCCN2CC2CC2)CC1 , please.
Output line: TRUE
